Hey, just so you know, these numbers are from ChEMBL document CHEMBL3885881.

# Organism: Rattus norvegicus
# assay.remarks: DrugMatrix - Regimen: Daily Repeat
# Type: toxicity, organism-based, Sprague-Dawley
# Set-up: regimen Daily Repeat, gender Male, age 6-8 weeks
# condition.info: in vivo, po, 0 mg/kg, 72 h, tissue Plasma, route oral GAVAGE, dose level Control, time 3 day, […]
reported.endpoint: LACTATE DEHYDROGENASE (u/L)
Write down the numeric answer in u/L and omit the unit.

• C[C@]12CC[C@@H]3c4ccc(O)cc4CC[C@H]3[C@@H]1CC[C@@H]2O [ESTRADIOL] = 119.5
• CC(C)Cc1ccc(C(C)C(=O)O)cc1 (stereo not given) [IBUPROFEN] = 115
• Cc1cccc(Nc2ccncc2S(=O)(=O)NC(=O)NC(C)C)c1 [TORSEMIDE] = 119.5
• C[C@H]1O[C@@H](O[C@H]2[C@@H](O)C[C@H](O[C@H]3[C@@H](O)C[C@H](O[C@H]4CC[C@@]5(C)[C@H](CC[C@@H]6[C@@H]5CC[C@]5(C)[C@@H](C7=CC(=O)OC7)CC[C@]65O)C4)O[C@@H]3C)O[C@@H]2C)C[C@H](O)[C@@H]1O [DIGITOXIN] = 101.83

Form field LACTATE DEHYDROGENASE, entry COCCOC(=O)C1=C(C)NC(C)=C(C(=O)OC(C)C)C1c1cccc([N+](=O)[O-])c1 (stereo not given) [NIMODIPINE] : 139.33

----------
# Organism: Rattus norvegicus
# assay.remarks: DrugMatrix - Regimen: Daily Repeat
# Format: toxicity, organism-based, Sprague-Dawley
# Set-up: regimen Daily Repeat, gender Male, age 6-8 weeks
# condition.info: in vivo, po, 0 mg/kg, 72 h, tissue Blood, route oral GAVAGE, dose level Control, time 3 day, […]
reported.endpoint: BASOPHIL (%)
Provide the reading as a plain figure in %.

Record CC(C)(Oc1ccc(C2CCCc3ccccc32)cc1)C(=O)O (centres undefined) . Reported BASOPHIL: 0

----------
# Species on record: Rattus norvegicus
# assay.remarks: DrugMatrix - Regimen: Daily Repeat
# Format: toxicity, organism-based, Sprague-Dawley
# Design: regimen Daily Repeat, gender Male, age 6-8 weeks
# condition.info: in vivo, sc, 0.5 mg/kg, 120 h, tissue Blood, route mini-PUMP - SUBCUTANEOUS, dose level High, time 5 day, vehicle 100 % SALINE
reported.endpoint: ABSOLUTE BASOPHIL (cells/µL)
Provide only the numeric value, understood in cells/µL.

Please fill in: ABSOLUTE BASOPHIL reported for `CC[C@H](C)[C@H](NC(=O)[C@H](Cc1ccc(O)cc1)NC(=O)[C@@H](NC(=O)[C@H](CCCNC(=N)N)NC(=O)[C@@H](N)CC(=O)O)C(C)C)C(=O)N[C@@H](Cc1cnc[nH]1)C(=O)N1CCC[C@H]1C(=O)N[C@@H](Cc1ccccc1)C(=O)O` = 43.3

----------
# Species: Rattus norvegicus
# assay.remarks: DrugMatrix - Regimen: Daily Repeat
# Format: toxicity, organism-based, Sprague-Dawley
# Design: regimen Daily Repeat, gender Male, age 6-8 weeks
# condition.info: in vivo, po, 10 mg/kg, 72 h, tissue Plasma, route oral GAVAGE, dose level Low, time 3 day, […]
As shown below, each of these compounds has a reported CREATININE value.
A number alone suffices; assume mg/dL.

* COCCOC(=O)C1=C(C)NC(C)=C(C(=O)OC(C)C)C1c1cccc([N+](=O)[O-])c1 (centres undefined) | 0.2
* COc1ccc2cc([C@H](C)C(=O)O)ccc2c1 | 0.19
* CC(C)CC(N(C)C)C1(c2ccc(Cl)cc2)CCC1 (centres undefined) | 0.1

Value of measured CREATININE for the entry CCOC(=O)C1=C(C)NC(C)=C(C(=O)OC)C1c1cccc([N+](=O)[O-])c1 (centres undefined) : 0.11
